List of relative viability values.
Test system: H3255
PROTOCOL_NOTES: relative viability (nuclei count vs DMSO), 5 days (fraction); higher = more cells survive
CONDITION_NOTES: first compound 6.325 µM

COMPOUND	relative viability
Cc1csc(=NC2CCCCC2)n1/N=C/c1ccc(O)c(O)c1O [MIM1] + O=C(c1cc(Cc2n[nH]c(=O)c3ccccc23)ccc1F)N1CCN(C(=O)C2CC2)CC1 [Olaparib] (partner 8 µM)	0.473
Cc1csc(=NC2CCCCC2)n1/N=C/c1ccc(O)c(O)c1O [MIM1] + Cc1nc(Nc2ncc(C(=O)Nc3c(C)cccc3Cl)s2)cc(N2CCN(CCO)CC2)n1 [Dasatinib] (partner 0.075 µM)	0.344
Cc1csc(=NC2CCCCC2)n1/N=C/c1ccc(O)c(O)c1O [MIM1] + Cc1nc(NC(=O)N2CCC[C@H]2C(N)=O)sc1-c1ccnc(C(C)(C)C(F)(F)F)c1 [Alpelisib] (partner 2 µM)	0.523
